measurement.target: muscarinic receptors
experiment.summary: Receptor binding studies (radioligand L(+)cis-[2-methyl-3H]-N,N,N-trimethyl-1,3-dioxolan-4-methanammonium-iodide, NET-647)
condition.info: cerebral cortex (rat); radioligand NET-647; tested as maleate (MA) or oxalate (OX) salt
Consider the cut-off 100 nM. If the recorded Ki is strictly smaller, the label is rule met; if not, the label is rule not met.

{"smiles.code": "CCOCC1=CCN(C)CC1", "class.label": "rule not met"}
{"smiles.code": "CSCC1=CCN(C)CC1", "class.label": "rule met"}
{"smiles.code": "CCCOCC1=CCN(C)CC1", "class.label": "rule not met"}
{"smiles.code": "COCCC1=CCN(C)CC1", "class.label": "rule not met"}
{"smiles.code": "CCSCC1=CCN(C)CC1", "class.label": "rule met"}
